Species: Rattus norvegicus
Assay: Minimum Effective Dose (MED) was measured using Food-Conflict test in rats
Assay type: functional
Conditions: read-out: MED
assay endpoint: minimal effective dose

Quick batch: minimal effective dose for everything below.
1. CCc1c(SC)nc2nc(C(=O)c3ccccc3)cn2c1C
2. CCOc1nc2nc(C(=O)c3ccccc3)cn2c2c1CSCC2
3. C=CCc1c(OC)nc2nc(C(=O)c3ccccc3)cn2c1C

["2 mg/kg", "> 50 mg/kg", "5 mg/kg"]

Quick batch: minimal effective dose for everything below.
1. COc1nc2nc(C(=O)c3ccccc3)cn2c2c1CCCC2
2. CSc1cc(C)n2cc(C(=O)c3ccccc3)nc2n1
3. COc1nc2nc(C(=O)c3ccccc3)cn2c2c1CCC(C)C2 (stereo not given)

1. 5 mg/kg
2. 5 mg/kg
3. 10 mg/kg

###

Target: GABA-A receptor; anion channel
Assay: Inhibition of 0.6 nM [3H]flunitrazepam binding to GABA-A central benzodiazepine receptor of rat forebrain membrane
assay endpoint: pIC50
One number for each entry, as −log10 of the molar value.

Some solved entries appear below for comparison.
> print(dat)
                                   compound  test.result
1       CCc1ccc2c(c1)c(OC)cc1nc(C(C)=O)cn12         5.89
2  CCc1ccc2c(c1)c(OC)cc1nc(C(=O)c3ccccc3)cn12         7.85
3              CCOC(=O)c1cn2c(n1)sc1ccccc12         6.92
4      CCCc1c(OC)nc2nc(C(=O)c3ccccc3)cn2c1C         7.07
5     CCCC(=O)c1cn2c(cc(OC)c3cc(CC)ccc32)n1         6.27

Quick batch: pIC50 for everything below.
1. CSc1nc2nc(C(=O)c3ccccc3)cn2c2c1CCC(C)C2 (centres undefined)
2. CCc1c(OC)nc2nc(C(=O)c3ccccc3)cn2c1CC

1: 7.12; 2: 6.97

Quick batch: pIC50 for everything below.
1. COc1nc2nc(C(=O)c3ccccc3)cn2c2c1CCCCC2
2. COc1nc2nc(C(=O)c3ccccc3)cn2c(C)c1CC1CC1

1. 6.90
2. 7.52

Quick batch: pIC50 for everything below.
1. CCc1ccc2c(c1)c(OC)c(CC)c1nc(C(=O)c3ccccc3)cn12
2. CCc1ccc2c(c1)sc1nc(C(=O)c3ccccc3)cn12
3. CCOC(=O)c1cn2c(n1)sc1cc(CC)ccc12
4. COc1ccc(C(=O)c2cn3c(cc(OC)c4ccccc43)n2)cc1
5. COc1cc2nc(C(=O)c3cccs3)cn2c2ccccc12
6. C=CCc1c(OC)nc2nc(C(=O)c3ccccc3)cn2c1C
7. CCCCc1c(OC)nc2nc(C(=O)c3ccccc3)cn2c1C
8. O=C(OC1CCCCC1)c1cn2c(n1)sc1ccccc12

[6.87, 6.13, 5.40, 7.43, 7.62, 7.35, 7.38, 5.15]

Quick batch: pIC50 for everything below.
1. CCC(=O)c1cn2c(cc(OC)c3cc(CC)ccc32)n1
2. CCCc1c(OC)nc2nc(C(=O)c3ccccc3)cn2c1CC
3. COc1cc2nc(C(=O)c3ccccc3)cn2c2ccc(F)cc12
4. COc1nc2nc(C(=O)c3ccccc3)cn2c2c1CCCC2
5. CCc1cn2cc(C(=O)c3ccccc3)nc2nc1OC

1. 6.87
2. 7.47
3. 7.70
4. 7.21
5. 5.82

Quick batch: pIC50 for everything below.
1. CCc1c(SC)nc2nc(C(=O)c3ccccc3)cn2c1C
2. COc1nc2nc(C(=O)c3ccccc3)cn2c(C)c1OC
3. CCCc1c(SC)nc2nc(C(=O)c3ccccc3)cn2c1CC
4. COc1cc2nc(C(=O)c3ccccc3)cn2c2ccc(C)cc12
5. COc1nc2nc(C(=O)c3ccccc3)cn2c2c1CCC2
6. C=CCc1c(OC)nc2nc(C(=O)c3ccccc3)cn2c1CC

1. 7.92
2. 6.00
3. 7.33
4. 7.68
5. 6.70
6. 7.38

Quick batch: pIC50 for everything below.
1. CCCc1ccc2c(c1)c(OC)cc1nc(C(=O)c3ccccc3)cn12
2. CCCCc1cc(OC)nc2nc(C(=O)c3ccccc3)cn12
3. CCOc1nc2nc(C(=O)c3ccccc3)cn2c2c1CCCCC2
4. CCCCc1ccc2c(c1)c(OC)cc1nc(C(=O)c3ccccc3)cn12
5. CCc1c(OC)nc2nc(C(=O)c3ccccc3)cn2c1C
6. C=CCc1c(SC)nc2nc(C(=O)c3ccccc3)cn2c1C
7. COc1cc2nc(C(=O)c3ccccc3)cn2c2cc(C)c(C)cc12

[7.80, 6.47, 5.40, 7.60, 7.25, 8.10, 7.00]

###

Kindly supply the reported IC50 values for the records listed here.
Molecular target: GABA-A receptor; anion channel
Experiment: Inhibition of 0.6 nM [3H]flunitrazepam binding to GABA-A central benzodiazepine receptor of rat forebrain membrane

Some solved entries appear below for comparison.
> print(dat)
                           structure.string                    study.system  assay.endpoint  test.result
1             CCOC(=O)Cc1cn2c(n1)sc1ccccc12  GABA-A receptor; anion channel            IC50      > 10 nM
2  COc1cc2nc(C(=O)c3ccc(Cl)cc3)cn2c2ccccc12  GABA-A receptor; anion channel            IC50        96 nM
3           CC(C)OC(=O)c1cn2c(n1)sc1ccccc12  GABA-A receptor; anion channel            IC50       160 nM

Now look at this one.
Noted for CCCc1cc(SC)nc2nc(C(=O)c3ccccc3)cn12 : its IC50 reads 89 nM

###

Species: Rattus norvegicus
Test: Minimum Effective Dose (MED) was measured using Food-Conflict test in rats
Assay type: functional
Conditions: read-out: MED
assay endpoint: minimal effective dose
Please give the number followed by its unit.

Some solved entries appear below for comparison.
> print(dat)
                           structure.string          assay.endpoint  test.result
1       CCc1ccc2c(c1)c(OC)cc1nc(C(C)=O)cn12  minimal effective dose     20 mg/kg
2  CCc1ccc2c(c1)c(OC)cc1nc(C(=O)c3ccccn3)cn12  minimal effective dose      5 mg/kg
3  CCc1ccc2c(c1)c(OC)c(CC)c1nc(C(=O)c3ccccc3)cn12  minimal effective dose     20 mg/kg

Noted for CCCCc1cc(OC)nc2nc(C(=O)c3ccccc3)cn12 : its minimal effective dose reads 10 mg/kg

###

Kindly supply the reported IC50 values for the records listed here.
Biological target: GABA-A receptor; anion channel
Test: Inhibition of 0.6 nM [3H]flunitrazepam binding to GABA-A central benzodiazepine receptor of rat forebrain membrane

Some solved entries appear below for comparison.
> print(dat)
                        structure.string                    study.system  test.result
1  CCOc1nc2nc(C(=O)c3ccccc3)cn2c2c1CSCC2  GABA-A receptor; anion channel      > 10 µM
2             O=C(O)c1cn2c(n1)sc1ccccc12  GABA-A receptor; anion channel    > 0.01 µM
3      O=C(Nc1nccs1)c1cn2c(n1)sc1ccccc12  GABA-A receptor; anion channel    > 0.01 µM

Noted for CC1(C)COC(c2cn3c(n2)sc2ccccc23)=N1 : its IC50 reads > 10 µM
